Settings: mouse, in vivo, po, 30 mg/kg, 0.5 h
recorded_endpoint: Cmax (µM)

- smiles: "COC(=O)Nc1nc2cc(C(=O)c3ccccc3)ccc2n1COP(=O)(O)OCOC(=O)OC(C)C"
  units: "µM"
  endpoint_result: 12.2

---

Test: Clearance in CD1 mouse at 1.5 mg/kg, iv by LC-MS/MS method
Type: ADME, organism-based
Conditions: in vivo
recorded_endpoint: clearance (mL/min/kg)

- smiles: "COC(=O)Nc1nc2ccc(C(=O)c3ccccc3)cc2[nH]1"
  endpoint_result: 27.4

---

Experiment: Tmax in CD1 mouse at 1.5 mg/kg, iv by LC-MS/MS method
Type: ADME, organism-based
Details: in vivo

- smiles: "COC(=O)Nc1nc2ccc(C(=O)c3ccccc3)cc2[nH]1"
  units: "min"
  Tmax: 4.98

---

Test: Prodrug conversion in mouse jejunum homogenate assessed as mebendazole formation by measuring remaining parent drug at 10 uM measured at 60 mins by LC-MS/MS method
Type: ADME, tissue-based
Conditions: in vitro, 1 h
recorded_endpoint: Stability (%)

- molecule: "COC(=O)Nc1nc2cc(C(=O)c3ccccc3)ccc2n1COC(=O)OC[C@H]1OC(O)[C@H](O)[C@@H](O)[C@@H]1O (stereo partly specified)"
  endpoint_result: 4
- molecule: "COC(=O)Nc1nc2ccc(C(=O)c3ccccc3)cc2[nH]1"
  endpoint_result: 100
- molecule: "COC(=O)Nc1nc2cc(C(=O)c3ccccc3)ccc2n1COC(=O)CCC(=O)O"
  endpoint_result: 30
- molecule: "COC(=O)Nc1nc2cc(C(=O)c3ccccc3)ccc2n1COP(=O)(O)OCOC(=O)OC(C)C"
  endpoint_result: 1
- molecule: "COC(=O)Nc1nc2cc(C(=O)c3ccccc3)ccc2n1COC(=O)CNC(=O)[C@H](CC(C)C)NC(C)=O"
  endpoint_result: 18
- molecule: "COC(=O)Nc1nc2cc(C(=O)c3ccccc3)ccc2n1COP(=O)(O)O"
  endpoint_result: 35

---

Experiment: Half life in Beagle dog at 0.3 mg/kg, iv by LC-MS/MS method
Assay type: ADME, organism-based, Canis lupus familiaris
Settings: in vivo

- molecule: "COC(=O)Nc1nc2ccc(C(=O)c3ccccc3)cc2[nH]1 [MEBENDAZOLE]"
  units: "min"
  half-life: 43.2

---

Assay: AUC (0 to t) in CD1 mouse plasma at 30 mg/kg administered via oral gavage by LC-MS/MS method
Format: ADME, organism-based

- smiles: "COC(=O)Nc1nc2ccc(C(=O)c3ccccc3)cc2[nH]1"
  AUC(0-t): "12.9 µM·h"

---

Assay: Oral bioavailability in CD1 mouse plasma at 30 mg/kg administered via gavage by LC-MS/MS method
Type: ADME, organism-based

- smiles: "COC(=O)Nc1nc2ccc(C(=O)c3ccccc3)cc2[nH]1"
  units: "%"
  bioavailability: 24

---

Experiment: Chemical stability of the compound in 0.01 M PBS assessed as parent compound remaining at 10 uM after 60 mins by LC-MS/MS method
Assay type: physicochemical
Settings: read-out: Stability
recorded_endpoint: remaining at 1 h, 10 µM (%)

- smiles: "COC(=O)Nc1nc2cc(C(=O)c3ccccc3)ccc2n1COC(=O)CC[C@H](N)C(=O)O"
  endpoint_result: 0

---

Assay: Half life in CD1 mouse at 1.5 mg/kg, iv by LC-MS/MS method
Type: ADME, organism-based
Conditions: in vivo

- smiles: "COC(=O)Nc1nc2ccc(C(=O)c3ccccc3)cc2[nH]1"
  half-life [min]: 43.8
